Assignment: determine reported IC50 for the given compounds.
Target: AR-VP16 (Homo sapiens, UniProt P10275)
Sequence (P10275 560-920 limits assumed): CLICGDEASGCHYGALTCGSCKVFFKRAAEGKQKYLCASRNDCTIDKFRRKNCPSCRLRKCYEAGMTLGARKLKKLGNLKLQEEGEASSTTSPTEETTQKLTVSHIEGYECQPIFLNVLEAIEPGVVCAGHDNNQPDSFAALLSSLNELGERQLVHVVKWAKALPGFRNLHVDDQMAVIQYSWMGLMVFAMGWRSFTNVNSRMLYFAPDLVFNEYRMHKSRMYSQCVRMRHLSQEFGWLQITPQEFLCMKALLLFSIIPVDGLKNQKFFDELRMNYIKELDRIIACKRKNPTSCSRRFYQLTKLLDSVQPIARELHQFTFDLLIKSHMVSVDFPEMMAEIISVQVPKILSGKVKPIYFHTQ
Assay: AR-VP16 DNA Binding Assay, antagonist mode (HepG2 cells, 0.1 nM R1881)

Field: example entries. Status: answers known.
• N#Cc1ncc(N2C(=O)C3(CCC3)N(c3ccc(C(=O)NC4CCCC4)c(F)c3)C2=S)cc1C(F)(F)F = < 1000 nM
• Cc1cncc(-c2ccc(N3C(=S)N(c4cnc(C#N)c(C)c4)C(=O)C34CCC4)cc2)c1 = < 1000 nM
• N#Cc1ncc(N2C(=O)C3(CCC3)N(c3ccc(OCCCOCc4ccccc4)c(F)c3)C2=S)cc1C(F)(F)F = < 1000 nM
• Cc1cc(N2C(=O)C3(CCC3)N(c3ccc(OCCN4CCN(C)CC4)c(F)c3)C2=S)cnc1C#N = < 1000 nM
• Cc1cc(N2C(=O)C3(CCC3)N(c3ccc(C(=O)Nc4cncc(F)c4)c(F)c3)C2=S)cnc1C#N = < 1000 nM
• CN(CCCNC(=O)c1ccc(N2C(=S)N(c3cnc(C#N)c(C(F)(F)F)c3)C(=O)C23CCC3)cc1F)C1CCCC1 = < 1000 nM

Each compound below has a reported value. Please supply its IC50.
1. Cc1cc(N2C(=O)C3(CCC3)N(c3ccc(C(=O)Nc4ccccc4F)c(F)c3)C2=S)cnc1C#N
2. Cc1cc(N2C(=O)C3(CCC3)N(c3ccc(-c4cccnc4C)cc3)C2=S)cnc1C#N
3. N#Cc1ncc(N2C(=O)C3(CCC3)N(c3ccc(C(=O)NC4CC4)c(F)c3)C2=S)cc1C(F)(F)F
4. Cc1cc(N2C(=O)C3(CCC3)N(c3ccc(O)cc3)C2=S)cnc1C#N
5. Cc1ccc(N2C(=S)N(c3cnc(C#N)c(C)c3)C(=O)C23CCC3)cc1

**Result**
1. < 1000 nM
2. < 1000 nM
3. < 1000 nM
4. > 1000 nM
5. < 1000 nM

Each compound below has a reported value. Please supply its IC50.
1. N#Cc1ncc(N2C(=O)C3(CCC3)N(c3ccc(OCCN4CCSCC4)c(F)c3)C2=S)cc1C(F)(F)F
2. N#Cc1ncc(N2C(=O)C3(CCC3)N(c3ccccc3-c3ccccc3)C2=S)cc1C(F)(F)F
3. N#Cc1ncc(N2C(=O)C3(CCC3)N(c3ccc(C(=O)NCCCN4CCC(F)(F)C4)c(F)c3)C2=S)cc1C(F)(F)F
4. Cc1cc(N2C(=O)C(C)(C)N(c3ccc(OC4CCN(C)CC4)cc3)C2=S)cnc1C#N
5. N#Cc1ncc(N2C(=O)C3(CCC3)N(c3ccc(C(=O)NCCc4ccccc4)c(F)c3)C2=S)cc1C(F)(F)F
6. N#Cc1ncc(N2C(=O)C3(CCC3)N(c3ccc(OCCC[S+]([O-])CCCC(F)(F)C(F)(F)F)c(F)c3)C2=S)cc1C(F)(F)F (centres unmarked)

**Result**
1: < 1000 nM; 2: > 1000 nM; 3: < 1000 nM; 4: > 1000 nM; 5: < 1000 nM; 6: < 1000 nM

Each compound below has a reported value. Please supply its IC50.
1. N#Cc1ncc(N2C(=O)C3(CCC3)N(c3ccc(OCCN4CCCCC4)cc3F)C2=S)cc1C(F)(F)F
2. N#Cc1ncc(N2C(=O)C3(CCC3)N(c3ccc(OCCCC(F)(F)C(F)(F)F)c(F)c3)C2=S)cc1C(F)(F)F
3. N#Cc1ncc(N2C(=O)C3(CCC3)N(c3ccc(C(=O)NCCCN4CCOCC4)c(F)c3)C2=S)cc1C(F)(F)F
4. Cc1ccc(N2C(=S)N(c3cnc(C#N)c(C(F)(F)F)c3)C(=O)C23CCC3)cc1F
5. N#Cc1ncc(N2C(=O)C3(CCC3)N(c3ccc(C(=O)NCCc4cccnc4)c(F)c3)C2=S)cc1C(F)(F)F

**Result**
1: < 1000 nM; 2: < 1000 nM; 3: < 1000 nM; 4: < 1000 nM; 5: < 1000 nM

Each compound below has a reported value. Please supply its IC50.
1. N#Cc1ncc(N2C(=O)C3(CCC3)N(c3ccc(-c4ccccn4)cc3)C2=S)cc1C(F)(F)F
2. N#Cc1ncc(N2C(=O)C3(CCC3)N(c3ccc(OCCCc4cccnc4)c(F)c3)C2=S)cc1C(F)(F)F

**Result**
1. < 1000 nM
2. < 1000 nM
